Hello, the source for this data is patent US7709507B2, in case you need it.

Molecular target: alpha2B receptor (Homo sapiens, UniProt P18089)
Construct: expressed in transfected cells; host or cells: NIH-3T3 cells
Sequence (P18089 whole entry): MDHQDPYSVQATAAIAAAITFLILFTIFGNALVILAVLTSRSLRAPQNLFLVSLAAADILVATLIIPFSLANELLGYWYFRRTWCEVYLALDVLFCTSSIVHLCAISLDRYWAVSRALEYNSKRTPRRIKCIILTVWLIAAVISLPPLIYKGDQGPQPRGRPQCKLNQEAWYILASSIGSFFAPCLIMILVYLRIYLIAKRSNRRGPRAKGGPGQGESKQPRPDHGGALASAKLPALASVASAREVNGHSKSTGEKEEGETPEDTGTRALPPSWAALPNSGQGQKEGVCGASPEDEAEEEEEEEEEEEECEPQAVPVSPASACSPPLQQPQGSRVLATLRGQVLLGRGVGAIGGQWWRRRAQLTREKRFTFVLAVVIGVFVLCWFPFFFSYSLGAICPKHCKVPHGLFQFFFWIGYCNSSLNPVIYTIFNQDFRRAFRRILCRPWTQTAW
Assay: Receptor Selection and Amplification Technology (RSAT) assay, Alpha 2B
Format: cell-based
Conditions: Alpha 2B EC50, RSAT, transfected NIH-3T3 cells with Gq/i5; not active = at concentrations less than 10 micromolar
Catalogue of EC50 readings, one per entry.
REPORTED_METRIC: EC50 (nM)

* O=C(NCCF)NC(Cc1ccccc1)c1ccccc1 (stereo not drawn) | 33.8
* O=C(NCCF)NC(Cc1ccccc1)c1cccs1 (stereo not drawn) | 28.5
* Cc1cccc(C(Cc2ccncc2)NC(=O)NCCF)c1 (stereo not drawn) | 37.7

----------
Catalogue of pEC50 readings, one per entry.
Target: alpha2C receptor (Homo sapiens, UniProt P18825)
Construct: expressed in transfected cells; host or cells: NIH-3T3 cells
Sequence (P18825 whole entry): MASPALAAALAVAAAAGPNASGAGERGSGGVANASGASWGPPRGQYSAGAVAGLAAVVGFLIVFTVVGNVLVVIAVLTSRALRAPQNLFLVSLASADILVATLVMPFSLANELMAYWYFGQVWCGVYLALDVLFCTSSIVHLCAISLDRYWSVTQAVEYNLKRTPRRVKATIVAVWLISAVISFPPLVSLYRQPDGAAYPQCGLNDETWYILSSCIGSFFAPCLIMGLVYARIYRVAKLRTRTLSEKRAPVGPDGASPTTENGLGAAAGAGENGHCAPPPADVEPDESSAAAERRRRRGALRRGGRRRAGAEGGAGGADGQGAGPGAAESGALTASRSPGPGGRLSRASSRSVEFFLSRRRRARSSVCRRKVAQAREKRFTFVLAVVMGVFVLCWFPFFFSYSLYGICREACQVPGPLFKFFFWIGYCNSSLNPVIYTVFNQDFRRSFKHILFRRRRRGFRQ
Experiment: Receptor Selection and Amplification Technology (RSAT) assay, Alpha 2C
Assay type: cell-based
pEC50: −log10 of the molar value.
REPORTED_METRIC: pEC50

• O=C(NCCF)NC(Cc1ccccc1)c1ccccc1 (centres unmarked) = 6.46
• O=C(NCCF)NC(Cc1ccccc1)c1cccs1 (centres unmarked) = 6.92

----------
Target: alpha2B receptor (Homo sapiens, UniProt P18089)
Construct: expressed in transfected cells; host or cells: NIH-3T3 cells
Test: Receptor Selection and Amplification Technology (RSAT) assay, Alpha 2B
Assay type: cell-based
Settings: ratio of maximal effect to that of standard full agonist brimonidine (UK14304)
Catalogue of Alpha 2B IA (intrinsic activity) readings, one per entry.
REPORTED_METRIC: Alpha 2B IA (intrinsic activity)

* O=C(NCCF)NC(Cc1ccccc1)c1cccc(Br)c1 (centres unmarked) | 0.86
* O=C(NCCF)NC(Cc1cccc(F)c1)c1cccc(C(F)(F)F)c1 (centres unmarked) | 0.84
* O=C(NCCF)NC(Cc1ccccc1)C1CCCC1 (centres unmarked) | 0.6
* Cc1cccc(C(Cc2ccc(F)cc2)NC(=O)NCCF)c1 (centres unmarked) | 0.88
* Cc1cccc(C(Cc2ccccc2F)NC(=O)NCCF)c1 (centres unmarked) | 1.02
* O=C(NCCF)NC(Cc1ccccc1)c1ccco1 (centres unmarked) | 0.77
* Cc1cccc(C(Cc2cccs2)NC(=O)NCCF)c1 (centres unmarked) | 1.08
* Cc1ccccc1CC(NC(=O)NCCF)c1cccc(Cl)c1 (centres unmarked) | 0.94
* O=C(NCCF)NC(Cc1ccccc1)c1cccc2ccccc12 (centres unmarked) | 0.77
* Cc1cccc(C(Cc2ccncc2)NC(=O)NCCF)c1 (centres unmarked) | 1.1
* O=C(NCCF)NC(Cc1ccccc1)c1cccs1 (centres unmarked) | 0.99

----------
Target: alpha2B receptor (Homo sapiens)
Construct: expressed in transfected cells; host or cells: NIH-3T3 cells
Experiment: Receptor Selection and Amplification Technology (RSAT) assay, Alpha 2B
Assay type: cell-based
Conditions: RSAT, transfected NIH-3T3 cells with Gq/i5; not active = at concentrations less than 10 micromolar; read-out: Alpha 2B EC50
pEC50: −log10 of the molar value.
REPORTED_METRIC: pEC50

• Cc1cccc(C(Cc2cccnc2)NC(=O)NCCF)c1 (stereo not shown) = 7.27
• COc1ccc(C(Cc2ccccc2)NC(=O)NCCF)cc1 (stereo not shown) = 5.97
• Cc1ccc(C(Cc2ccccc2)NC(=O)NCCF)cc1 (stereo not shown) = 6.66
• Cc1cccc(C(Cc2ccc(F)cc2)NC(=O)NCCF)c1 (stereo not shown) = 7.37
• O=C(NCCF)NC(Cc1ccccc1)c1ccccc1Cl (stereo not shown) = 6.39
• O=C(NCCF)NC(Cc1ccccc1)c1cccc(Cl)c1F (stereo not shown) = 6.86
• O=C(NCCF)NC(Cc1cccc(F)c1)c1cccc(C(F)(F)F)c1 (stereo not shown) = 7.07
• O=C(NCCF)NC(Cc1ccccc1)c1ccc(Cl)c(Cl)c1 (stereo not shown) = 6.31
• O=C(NCCF)NC(Cc1cccc(F)c1)c1ccccc1 (stereo not shown) = 7.59
• Cc1cccc(C(Cc2cc(F)ccc2F)NC(=O)NCCF)c1 (stereo not shown) = 7.67
• O=C(NCCF)NC(Cc1cccc(F)c1)c1cccnc1 (stereo not shown) = 5.70
• O=C(NCCF)NC(Cc1cc(F)ccc1F)c1cccnc1 (stereo not shown) = 6.21
• O=C(NCCF)NC(Cc1ccccc1)c1cccc2ccccc12 (stereo not shown) = 6.80
